For each record, write down the corresponding amyloid nucleation score.
procedure_details: amyloid nucleation score (Sup35N fusion, yeast selection) (log enrichment); library NNK2; higher = more nucleation; inactive = no reads after selection;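 further: zero at mode of non-aggregating sequences after 7 days selection at 30°C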
Numbers only.

Recorded amyloid nucleation score, per entry:
| substance | amyloid nucleation score |
| --- | --- |
| VLSVISLFGHILVMFLERKV | -0.13 |
| CTSCERSLAKRLQGWHIF | -1.09 |
| NIFRMHLGQASQVIIFLDCR | 4.58 |

For every record below, what is its amyloid nucleation score?
1. DNELFPLYWNR
2. TFINAGFRLHFRFYRFVFSK
3. CWDCKLPHRPGVFMRNNHFK
4. RWDCLQLLISSCFFDMDGCG
5. FSYQSHY
6. VRFSVLRFGKLCPSGLWRVR
7. ILRLTAVCHGHFAVRPDWKR

Result:
1. 0.309
2. -0.717
3. -0.015
4. -0.668
5. 0.466
6. 0.255
7. 0.248

====

procedure_details: amyloid nucleation score (Sup35N fusion, yeast selection) (log enrichment); library NNK3; higher = more nucleation; inactive = no reads after selection
observed_property: amyloid nucleation score

Worked examples follow.
| substance | endpoint_value |
| --- | --- |
| ISLKSLFVFHNLSVDIWVQR | inactive |
| CEYCFGMTSLTAWWCYVLRC | inactive |
| CSNGFLFTVRVDTGFPTRI | inactive |
| TWLFFRNHTQAFCSYLAHWG | inactive |
| QEWKQWLMSWTSRKAFSLKS | inactive |
| TCSRIQLISNWFRVQLKSNV | inactive |
| TPFSCEYNIMWESRGGDWSR | inactive |
| SLRSCVYPMDDGIMQCWSSR | inactive |
| EDSMRYCH | inactive |
| HRMCVRRFRVFRESVEEVHF | inactive |

Record amyloid nucleation score per entry; entries follow.
1. FLPPTVINVVHAYRRFSSDR
2. KHSVSLECRIRSAGDTVGWF

Result:
[1.71, "inactive"]

Kindly give each listed record's amyloid nucleation score.
1. YPALINSVFITDAIGGPYCL
2. QLCVISWLGR
3. LFIWTDILTFLRS
4. VSSCAC
5. FVHRLPGWGSKLKTIRTCSN
6. SNGKVTLYKRLRDTSPQGIY

Result:
inactive
1.14
inactive
inactive
inactive
inactive

# batch size: 8; output amyloid nucleation score per entry
1. FIGFSAWWNGMDNVRVLASS
2. IVSMDQESTLQWNVPGYVLL
3. EVRRRDLYLWKASETLLRLL
4. VRAGTIYRGVYHFCLFCMGE
5. IRLPIGQGLC
6. NSFSLGNSLNPYKAAPRRML
7. SWLCPFNGA
8. CFCLSRL

Result:
-0.269
inactive
inactive
0.828
inactive
inactive
inactive
inactive

Could you tell me amyloid nucleation score for each of these substances? They are listed below.
1. CDLWIHWS
2. ICFVSCKLFFVDSLCFCFAG

Result:
1: inactive; 2: inactive

====

procedure_details: amyloid nucleation score (Sup35N fusion, yeast selection) (log enrichment); library NNK3; higher = more nucleation; inactive = no reads after selection
observed_property: amyloid nucleation score

| sequence_record | observed_property | endpoint_value |
| --- | --- | --- |
| KVVNGVRCKKSQGLI | amyloid nucleation score | inactive |
| MNGMICISNCFKDGHVTLNK | amyloid nucleation score | 1.26 |
| VVSRVMTGSHHVRQFRM | amyloid nucleation score | inactive |
| DNFRVDLVNRLLFYRISHAA | amyloid nucleation score | inactive |
| SSSRMFSSLFSVCIWVDTII | amyloid nucleation score | inactive |
| VCGIYYVFLAGWEHKSRSKE | amyloid nucleation score | 1.86 |
| FNCGPCIVLEWYFTSVAGQG | amyloid nucleation score | 2.1 |

Now consider a different sequence.
Request: So what does the record say about amyloid nucleation score for IRYSGFPYPSNLWHTSATLY ?
Result: inactive

The values you see were collected from the supplement of paper PMC12042874.
